- ASSAY: Confirmation screen for delayed death inhibitors of the malarial parasite plastid, 96 hour incubation; further: nearly all actives have a fitted effect of over 60% in size; further: potency means the concentration at half of the fitted maximal effect
- MEASUREMENT PARAMETERS: P. falciparum luciferase growth in erythrocytes; series mostly up to 28.7 µM
About 1,400 (61%) of roughly 2,300 compounds were called active. Not shown: some 29% with an inconclusive outcome. The set was probably picked from earlier hits. The list shows a part of the results.
READOUT LABEL: Potency

Use the examples below as a reference point.
> print(dat)
                                    compound  readout.label              result
 1  COc1ccc(C(=O)CSc2nnc(C3CCCCC3)n2N)c(OC)c1        Potency    3.16 µM (active)
 2  COc1ccc(C2c3c(ncn(CCN4CCOCC4)c3=N)Oc3ccc4ccccc4c32)cc1OC (stereo unspecified)        Potency       2 µM (active)
 3  CCOc1ccc(/C=C/C(=O)NCCc2ccc(OC)c(OC)c2)cc1        Potency    15.8 µM (active)
 4  O=C1CN(c2nc(-c3cccnc3)nc3scc(-c4ccccc4)c23)CCN1        Potency            inactive
 5  COc1ccc(S(=O)(=O)Nc2cccc(-c3ccc(N4CCCCCC4)nn3)c2)c(OC)c1        Potency    11.2 µM (active)
 6  O=Nc1c(-c2c(O)[nH]c3cc(Br)ccc23)[nH]c2ccccc12        Potency    3.16 µM (active)
 7  COC1C(OC(=O)/C=C/C=C/C=C/C=C/C(=O)O)CCC2(CO2)C1C1(C)OC1CC=C(C)C (stereo unspecified)        Potency  0.0501 µM (active)
 8  O=C1NC(=S)S/C1=C\C=C\c1ccc([N+](=O)[O-])o1        Potency       2 µM (active)
 9  COC(=O)c1c(NC(=O)c2cccc(N3C(=O)CCC3=O)c2)sc2c1CCN(C(C)=O)C2        Potency    11.2 µM (active)
10  C[C@@H]1c2cccc(O)c2C(O)=C2C(=O)[C@@]3(O)C(O)=C(C(N)=O)C(=O)[C@@H](N(C)C)[C@@H]3[C@@H](O)[C@@H]21        Potency    2.51 µM (active)

Noted for `COc1ccc(-c2cc(C)no2)cc1S(=O)(=O)Nc1cccc(CN2CCCC2)c1` : its Potency reads 12.6 µM (active)

Potency in this record for `Cc1ccc(Nc2nc(=O)c3cccnc3s2)c(Br)c1` : inactive

get_value(item= `O=c1c(Cl)cc(Cl)nn1-c1ccccc1` , readout=Potency) returns 12.6 µM (active)

Short answer for COc1cccc(COC(=O)C2CC(=O)N(Cc3ccco3)C2)c1OC (stereo unspecified) : Potency was inactive

What the record says about `CCC(=O)Nc1cccc(C(=O)/C=C/c2cc(Br)ccc2OC)c1` : Potency is 7.94 µM (active)

// Potency lookup, compound = `CCn1cc(C(=O)O)c(=O)c2cc(F)c(N/N=C/c3ccccc3)cc21` , result: 10 µM (active)

Data point: `COc1cc(C(=O)NCc2ccncc2)cc(Br)c1OCc1ccccc1` ; Potency = 8.91 µM (active)

Per the record, CC(C)CN1C2CCCC1CC(NC(=S)NCc1ccco1)C2 (stereo unspecified) has Potency of 10 µM (active)

---

- ASSAY: Confirmation screen for delayed death inhibitors of the malarial parasite plastid, 96 hour incubation; further: nearly all actives have a fitted effect of over 60% in size; further: potency means the concentration at half of the fitted maximal effect
- MEASUREMENT PARAMETERS: P. falciparum luciferase growth in erythrocytes; series mostly up to 28.7 µM
About 1,400 (61%) of roughly 2,300 compounds were called active. Another 29% or so got no clear call; they are omitted. So high a share suggests a set chosen from earlier hits. This is one part of the list.
Items are presented alongside their recorded Potency.

> print(dat)
                            compound.smiles            result
1  Cc1cc(-c2ccc(C(C)C)c(S(=O)(=O)NCc3ccco3)c2)on1  14.1 µM (active)
2  Cc1ccc(NC(=O)COc2ccccc2C#N)cc1S(=O)(=O)N1CCCCCC1  12.6 µM (active)
3  CCc1ccc(-c2cc(C)no2)cc1S(=O)(=O)NCc1ccco1  12.6 µM (active)

Form field Potency, entry `Cc1cc2nc3c(=O)[nH]c(=S)[nH]c3nc2cc1NC(=O)C(F)(F)F` : 14.1 µM (active)

// Potency lookup, compound = `COc1cc2c(cc1OC)CN(CC(=O)Nc1ccc(S(=O)(=O)N3CCCC3)cc1)CC2` , result: 15.8 µM (active)

---

Each record here notes measured Potency.
- ASSAY: Confirmation screen for delayed death inhibitors of the malarial parasite plastid, 96 hour incubation; further: nearly all actives have a fitted effect of over 60% in size; further: potency means the concentration at half of the fitted maximal effect
- MEASUREMENT PARAMETERS: P. falciparum luciferase growth in erythrocytes; series mostly up to 28.7 µM
- Text: The goal of this screen is to discover new antimalarial compounds that act by inhibiting the development of the apicoplast in the malarial parasite Plasmodium falciparum. The biochemical processes that make this organelle essential for erythrocytic stage parasites are not well understood. […] Growth inhibition is detected by a decrease in luciferase activity. […]
Hit rate of the full screen: of about 2,300 compounds, about 1,400 (61%) were called active. Inconclusive results (about 29%) are left out. So high a share suggests a set chosen from earlier hits. The list shows a part of the results.

Before answering, review these 5 worked examples.
> print(dat)
                                   compound            result
1  CC(C)(C)n1nnnc1C(c1ccc2ncccc2c1)N1CCSCC1 (stereo unspecified)  11.2 µM (active)
2  CC(C)(C)c1nc(SCC(=O)Nc2ccc(N3CCOCC3)cc2)c2ccccc2n1  8.91 µM (active)
3     COc1ccccc1CNC(=O)c1ccc(-c2ccccc2Cl)o1  6.31 µM (active)
4  Cn1c(=O)c([N+](=O)[O-])c(-n2ccnc2)c2ccccc21  14.1 µM (active)
5  Cc1cc(=O)n2nc(N3CCC(C(=O)NCc4ccc(Cl)cc4)CC3)sc2n1    10 µM (active)

Lab note: next compound to report on.
Entry under test: `CCOC(=O)C(=Cc1ccc(Br)cc1)C(=O)OCC` . Its Potency was 7.94 µM (active)

---

- ASSAY: Confirmation screen for delayed death inhibitors of the malarial parasite plastid, 96 hour incubation; further: nearly all actives have a fitted effect of over 60% in size
- MEASUREMENT PARAMETERS: P. falciparum luciferase growth in erythrocytes; series mostly up to 28.7 µM
The campaign covered roughly 2,300 compounds. About 1,400 (61%) were called active. About 29% were inconclusive and are not listed. Calls come from the whole dose curve; as a rule, active = well fitted inhibition curve with a large enough effect; inconclusive = small, poorly fitted or top-dose-only effect, or effect the other way; inactive = no such curve, though single readings can be large or run the other way. The set was probably picked from earlier hits. The list shows a part of the results.
Respond using exactly one of the listed classes: 1 (active), 0 (inactive)

Consider the worked cases shown below.
> print(dat)
                                    compound  discrete.label
 1  OC(c1cc(-c2ccc(Cl)cc2)nc2ccccc12)C1CCCCN1 (stereo unspecified)               1
 2         Cc1n[nH]c(=S)n(/N=C/c2ccccn2)c1=O               0
 3  N#Cc1cc(C(=O)c2cc(Cl)ccc2O)cn(-c2ccccc2)c1=O               1
 4  CCC(CC)COC(=O)C1=C(C)NC(=O)NC1c1ccccc1Br (stereo unspecified)               1
 5  C=CCN=c1scc(-c2ccc(F)cc2)n1/N=C/c1ccccn1               1
 6  OC(c1cc(C(F)(F)F)nc2c(C(F)(F)F)cccc12)C1CCCCN1 (stereo unspecified)               1
 7  COCCN(C(=O)CCCC(=O)Nc1ccccn1)C(C(=O)NC1CCCCC1)c1ccc(C)cc1 (stereo unspecified)               1
 8  O=C(CSc1nnc2ccc(-c3cccnc3)nn12)Nc1cccc(F)c1               1
 9  OC(c1cc(C(F)(F)F)nc2c(Cl)cc(Cl)cc12)C1CCCCN1 (stereo unspecified)               1
10  O=C(Nc1ccccc1C(F)(F)F)N1CCN(c2ccc3nnc(-c4ccc(F)cc4)n3n2)CC1               1

Next up:
Request: Which outcome was assigned to CCOC(=O)C1CCCCN1Cc1cccc(OCc2ccccc2)c1 (stereo unspecified) in this test?
Result: 1

---

- ASSAY: Confirmation screen for delayed death inhibitors of the malarial parasite plastid, 96 hour incubation; further: nearly all actives have a fitted effect of over 60% in size
- MEASUREMENT PARAMETERS: P. falciparum luciferase growth in erythrocytes; series mostly up to 28.7 µM
- Excerpt: The goal of this screen is to discover new antimalarial compounds that act by inhibiting the development of the apicoplast in the malarial parasite Plasmodium falciparum. The biochemical processes that make this organelle essential for erythrocytic stage parasites are not well understood. […] Growth inhibition is detected by a decrease in luciferase activity. […]
Among all 2,300 compounds or so, about 1,400 (61%) were called active. About 29% were inconclusive and are not listed. Calls follow the shape of the dose curve; as a rule, active = well fitted inhibition curve with a large enough effect; inconclusive = small, poorly fitted or top-dose-only effect, or effect the other way; inactive = no such curve, though single readings can be large or run the other way. The set was probably picked from earlier hits. The list shows a part of the results.
Output constraint: value belongs to active, inactive

# count of solved cases: 4
> print(dat)
                                   molecule  discrete.label
1  NC(=O)CC(NC(=O)Cc1ccc(Br)cc1)c1ccc(NC2CC3CCC2C3)c([N+](=O)[O-])c1 (stereo not given)          active
2  O=c1c(Cl)c(Cl)cnn1Cc1nnc(-c2ccc(Cl)cc2)o1          active
3  C=C1CCC2[C@](C)(CO)[C@H](O)CC[C@@]2(C)[C@@H]1C/C=C1\C(=O)OC[C@H]1O (stereo not given in full)          active
4   Cc1cccc(C)c1OCCn1nc(C(=O)O)c2ccccc2c1=O        inactive

Request: How did this test come out for `Oc1ccc(-c2n[nH]c(=S)n2-c2ccc3c(c2)OCCO3)c(O)c1` ?
Result: active
